Assay: Plasma pharmacokinetics and tissue distribution 2 h after oral cabazitaxel 10 mg/kg with vehicle or 25 mg/kg ritonavir in wild-type, Oatp1a/1b−/−, Oatp1a/1b/2b1−/−, OATP1B1- and OATP1B3-transgenic mice
Format: in vivo
Conditions: male, FVB, mouse, plasma, po, 25 mg/kg, Oatp1a/1b−/− mice; ritonavir 25 mg/kg oral; cabazitaxel 10 mg/kg oral

# COMPOUND, Tmax [h]
measured = [
    ("CC(C)c1nc(CN(C)C(=O)N[C@H](C(=O)N[C@@H](Cc2ccccc2)C[C@H](O)[C@H](Cc2ccccc2)NC(=O)OCc2cncs2)C(C)C)cs1 [ritonavir]", 1.21),
]

----------
Test: Plasma pharmacokinetics and tissue distribution 2 h after oral cabazitaxel 10 mg/kg with vehicle or 25 mg/kg ritonavir in wild-type, Oatp1a/1b−/−, Oatp1a/1b/2b1−/−, OATP1B1- and OATP1B3-transgenic mice
Type: in vivo
Conditions: male, FVB, mouse, liver, oral, 10 mg/kg, Oatp1a/1b−/− mice; vehicle; cabazitaxel 10 mg/kg oral; 2 h; read-out: Liver-to-plasma ratio

# COMPOUND, Kp at 2 h
measured = [
    ("CO[C@H]1C(=O)[C@]2(C)[C@@H](OC)C[C@H]3OC[C@@]3(OC(C)=O)[C@H]2[C@H](OC(=O)c2ccccc2)[C@]2(O)C[C@H](OC(=O)[C@H](O)[C@@H](NC(=O)OC(C)(C)C)c3ccccc3)C(C)=C1C2(C)C", 3.95),
]

----------
Test: in vivo
Conditions: male, Cyp3aXAV (human CYP3A in Cyp3a−/−, FVB background), mouse, po, 1 mg/kg, AUC0-24 h

# COMPOUND, AUC(0-t)
data = [
    ("CC(C)c1nc(CN(C)C(=O)N[C@H](C(=O)N[C@@H](Cc2ccccc2)C[C@H](O)[C@H](Cc2ccccc2)NC(=O)OCc2cncs2)C(C)C)cs1", "0.447 nM·h"),
]

----------
Assay: Plasma pharmacokinetics and tissue distribution 2 h after oral cabazitaxel 10 mg/kg with vehicle or 25 mg/kg ritonavir in wild-type, Oatp1a/1b−/−, Oatp1a/1b/2b1−/−, OATP1B1- and OATP1B3-transgenic mice
Type: in vivo
Conditions: male, FVB, mouse, plasma, po, 10 mg/kg, Oatp1a/1b−/− mice; vehicle; cabazitaxel 10 mg/kg oral
MEASURED ENDPOINT: Cmax (nM)

# COMPOUND, MEASURED ENDPOINT, READOUT VALUE
data = [
    ("CO[C@H]1C(=O)[C@]2(C)[C@@H](OC)C[C@H]3OC[C@@]3(OC(C)=O)[C@H]2[C@H](OC(=O)c2ccccc2)[C@]2(O)C[C@H](OC(=O)[C@H](O)[C@@H](NC(=O)OC(C)(C)C)c3ccccc3)C(C)=C1C2(C)C", "Cmax", 2120),
]

----------
Assay: Plasma pharmacokinetics and tissue distribution 2 h after oral cabazitaxel 10 mg/kg with vehicle or 25 mg/kg ritonavir in wild-type, Oatp1a/1b−/−, Oatp1a/1b/2b1−/−, OATP1B1- and OATP1B3-transgenic mice
Type: in vivo
Conditions: male, FVB, mouse, plasma, po, 10 mg/kg, wild-type mice; vehicle pretreatment; oral 10 mg/kg cabazitaxel
MEASURED ENDPOINT: Cmax (nM)

# COMPOUND, UNITS SYMBOL, READOUT VALUE
data = [
    ("CO[C@H]1C(=O)[C@]2(C)[C@@H](OC)C[C@H]3OC[C@@]3(OC(C)=O)[C@H]2[C@H](OC(=O)c2ccccc2)[C@]2(O)C[C@H](OC(=O)[C@H](O)[C@@H](NC(=O)OC(C)(C)C)c3ccccc3)C(C)=C1C2(C)C", "nM", 2820),
    ("CC(=O)O[C@@]12CO[C@@H]1C[C@H](O)[C@@]1(C)C(=O)[C@H](O)C3=C(C)[C@@H](OC(=O)[C@H](O)[C@@H](NC(=O)OC(C)(C)C)c4ccccc4)C[C@@](O)([C@@H](OC(=O)c4ccccc4)[C@H]21)C3(C)C", "nM", 84),
]
